Target: T1, APC9141-AA
T1 chain: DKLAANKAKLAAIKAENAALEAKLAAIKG
Test: two-hybrid library CCmax;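 also: natural log of median RNA to DNA barcode read ratio; higher means stronger binding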
Details: mean of both orientations
Please note: interaction score exactly at -2 is Condition not met. Only values below -2 get Condition met.

INSERT INTO assay_data (binder, discrete_label) VALUES
  ('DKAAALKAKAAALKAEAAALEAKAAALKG [APC3323-AA]', 'Condition met'),
  ('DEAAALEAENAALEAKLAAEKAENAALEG [APC2474-AA]', 'Condition met'),
  ('DELAAIEAKNAALKAENAALEAEAAALEG [APC542-AA]', 'Condition not met'),
  ('DELAAEEAELAAIEAELAANEAELAANEG [APC6088-AA]', 'Condition not met');

The measured values listed here are drawn from paper PMC10397247.
